# maps each entry to its Cmax
Assay: Mouse PK study (IV and PO)
Type: in vivo
Conditions: male, C57BL/6, mouse, plasma, po, 10 mg/kg, male C57BL/6 mice, PO group 10 mg/kg
endpoint_label: Cmax (ng/mL)

>  <query_smiles>
CCc1nc2ccc(-c3cnc(N4CCN(C(=O)C5(O)CC5)CC4)nc3)cn2c1N(C)c1nc(-c2ccc(F)cc2)c(C#N)s1

>  <quantitative_result>
4070

$$$$
>  <query_smiles>
CCc1nc2ccc(-c3cnc(N4CCN(C(=O)C5(CO)CC5)CC4)nc3)cn2c1N(C)c1nc(-c2ccc(F)cc2)c(C#N)s1

>  <quantitative_result>
4950

$$$$
>  <query_smiles>
CCc1nc2ccc(-c3cnc(N4CCN(C(=O)N5CC[C@H](O)C5)CC4)nc3)cn2c1N(C)c1nc(-c2ccc(F)cc2)c(C#N)s1

>  <quantitative_result>
4730

$$$$
>  <query_smiles>
CCc1nc2ccc(-c3cnc(N4CCC(C(=O)N5CCC5)CC4)nc3)cn2c1N(C)c1nc(-c2ccc(F)cc2)c(C#N)s1

>  <quantitative_result>
7750

$$$$
>  <query_smiles>
CCc1nc2ccc(-c3ccc(N4CCC(C(=O)N5CC[C@@H](O)C5)CC4)nc3)cn2c1N(C)c1nc(-c2ccc(F)cc2)c(C#N)s1

>  <quantitative_result>
7040

$$$$
>  <query_smiles>
CCc1nc2ccc(-c3ccc(N4CCC(C(=O)N5CCC5)CC4)nc3)cn2c1N(C)c1nc(-c2ccc(F)cc2)c(C#N)s1

>  <quantitative_result>
7000

$$$$

* * *

Reported IC50 values for the following compounds.
Target: hATX/ENPP2 (Homo sapiens, UniProt Q13822)
Assay: hATX/ENPP2 biochemical assay using 16:0-LPC as substrate (Amplex Red/choline oxidase/HRP fluorescence)
Conditions: hENPP2 2.5 nM, LPC (16:0) substrate

>  <compound>
CCc1nc2ccc(-c3cnc(N4CCN(C(=O)NC5CCNCC5)CC4)nc3)cn2c1N(C)c1nc(-c2ccc(F)cc2)c(C#N)s1 [Compound 67]

>  <IC50>
0.02 to 0.2 µM

$$$$
>  <compound>
CCc1nc2ccc(-c3cnc(N4CCN(C(=O)[C@@H]5C[C@H](O)CN5)CC4)nc3)cn2c1N(C)c1nc(-c2ccc(F)cc2)c(C#N)s1 [Compound 7]

>  <IC50>
≤ 0.02 µM

$$$$
>  <compound>
CCc1nc2ccc(-c3cnc(N4CC(NC5CNC5)C4)nc3)cn2c1N(C)c1nc(-c2ccc(F)cc2)c(C#N)s1 [Compound 27]

>  <IC50>
0.02 to 0.2 µM

$$$$
>  <compound>
CCc1nc2ccc(-c3cnc(C(=O)N4CC[C@H](O)C4)nc3)cn2c1N(C)c1nc(-c2ccc(F)cc2)c(C#N)s1 [Compound 48]

>  <IC50>
0.02 to 0.2 µM

$$$$
>  <compound>
CCc1nc2ccc(-c3cnc(NC4CCNCC4)nc3)cn2c1N(C)c1nc(-c2ccc(F)cc2)c(C#N)s1 [Compound 22]

>  <IC50>
> 0.2 µM

$$$$
>  <compound>
CCc1nc2ccc(-c3cnc(NC4CN(C(=O)C5(O)CC5)C4)nc3)cn2c1N(C)c1nc(-c2ccc(F)cc2)c(C#N)s1 [Compound 35]

>  <IC50>
0.02 to 0.2 µM

$$$$

* * *

Recorded bioavailability by entry
Test: Mouse PK study (IV and PO)
Format: in vivo
Settings: male, C57BL/6, mouse, plasma, po, 10 mg/kg, male C57BL/6 mice, IV 2 mg/kg and PO 10 mg/kg; read-out: F % (bioavailability)
Protocol: This example describes the pharmacokinetic (PK) data obtained for various compounds of the present disclosure, from studies using mice. The following PK parameters were calculated: • Bioavailability (F %) were calculated using the linear/log trapezoidal rule • Peak plasma concentrations (Cmax (ng/mL)) were taken directly from the plasma concentration vs. time profiles for the PO group • Area under the curve e.g., the area under the concentration curve from time 0 to infinity (AUC0-inf(ng*h/mL)). […]
endpoint_label: bioavailability (%)

>  <query_smiles>
CCc1nc2ccc(-c3cnc(N4CCC(C(=O)N5CCC5)CC4)nc3)cn2c1N(C)c1nc(-c2ccc(F)cc2)c(C#N)s1

>  <quantitative_result>
55.7

$$$$
>  <query_smiles>
CCc1nc2ccc(-c3cnc(N4CCN(C(=O)C5(CO)CC5)CC4)nc3)cn2c1N(C)c1nc(-c2ccc(F)cc2)c(C#N)s1

>  <quantitative_result>
28

$$$$
>  <query_smiles>
CCc1nc2ccc(-c3cnc(N4CCN(C(=O)N5CC[C@@H](O)C5)CC4)nc3)cn2c1N(C)c1nc(-c2ccc(F)cc2)c(C#N)s1

>  <quantitative_result>
39.5

$$$$
>  <query_smiles>
CCc1nc2ccc(-c3ccc(N4CCC(C(=O)N5CCC5)CC4)nc3)cn2c1N(C)c1nc(-c2ccc(F)cc2)c(C#N)s1

>  <quantitative_result>
57.8

$$$$
>  <query_smiles>
CCc1nc2ccc(-c3ccc(N4CCC(C(=O)N5CC(O)C5)CC4)nc3)cn2c1N(C)c1nc(-c2ccc(F)cc2)c(C#N)s1

>  <quantitative_result>
40.8

$$$$

* * *

Target: hATX/ENPP2 (Homo sapiens)
Assay: hATX/ENPP2 biochemical assay using 16:0-LPC as substrate (Amplex Red/choline oxidase/HRP fluorescence)
Settings: hENPP2 2.5 nM, LPC (16:0) substrate
pIC50: −log10 of the molar value. Structures can show the parent of a compound that is named as a salt.

>  <molecule>
CCc1nc2ccc(-c3cnc(C4CCN(CC(=O)N5CCCC5)CC4)nc3)cn2c1N(C)c1nc(-c2ccc(F)cc2)c(C#N)s1 [Compound 104]

>  <pIC50>
6.70 to 7.70

$$$$
>  <molecule>
CCc1nc2ccc(-c3cnc(N4CCN(C(=O)C5(CO)CC5)CC4)nc3)cn2c1N(C)c1nc(-c2ccc(F)cc2)c(C#N)s1 [Compound 10]

>  <pIC50>
≥ 7.70

$$$$
>  <molecule>
CCc1nc2ccc(-c3cnc(N4CCC(C(=O)N5CCOCC5)CC4)nc3)cn2c1N(C)c1nc(-c2ccc(F)cc2)c(C#N)s1 [Compound 127]

>  <pIC50>
≥ 7.70

$$$$
>  <molecule>
CCc1nc2ccc(-c3cnc(N4CCC(NC(=O)[C@@H]5C[C@@H](O)CN5)CC4)nc3)cn2c1N(C)c1nc(-c2ccc(F)cc2)c(C#N)s1 [Compound 77]

>  <pIC50>
≥ 7.70

$$$$
>  <molecule>
CCc1nc2ccc(-c3cnc(C4CCN(C(=O)N5CCCC5)CC4)nc3)cn2c1N(C)c1nc(-c2ccc(F)cc2)c(C#N)s1 [Compound 102]

>  <pIC50>
6.70 to 7.70

$$$$
>  <molecule>
CCc1nc2ccc(-c3cnc(N4CCN(C(=O)C5(C#N)CC5)CC4)nc3)cn2c1N(C)c1nc(-c2ccc(F)cc2)c(C#N)s1 [Compound 1]

>  <pIC50>
≥ 7.70

$$$$
>  <molecule>
CCc1nc2ccc(-c3cnc(N4CCN(C(=O)[C@@H]5C[C@@H](O)CN5C)CC4)nc3)cn2c1N(C)c1nc(-c2ccc(F)cc2)c(C#N)s1 [Compound 78]

>  <pIC50>
≥ 7.70

$$$$
>  <molecule>
CCc1nc2ccc(-c3cnc(CC(=O)N4CCNCC4)nc3)cn2c1N(C)c1nc(-c2ccc(F)cc2)c(C#N)s1 [Compound 58]

>  <pIC50>
6.70 to 7.70

$$$$
>  <molecule>
CCc1nc2ccc(-c3cnc(N4CCN(C(=O)NC5CN(C)C5)CC4)nc3)cn2c1N(C)c1nc(-c2ccc(F)cc2)c(C#N)s1 [Compound 82 hydrochloride]

>  <pIC50>
≥ 7.70

$$$$
>  <molecule>
CCc1nc2ccc(-c3cnc(N4CC(C(=O)NC5CCNCC5)C4)nc3)cn2c1N(C)c1nc(-c2ccc(F)cc2)c(C#N)s1 [71 (hydrochloride salt)]

>  <pIC50>
6.70 to 7.70

$$$$
>  <molecule>
CCc1nc2ccc(-c3cnc(N4CCN(C(=O)N5CC[C@H](O)C5)CC4)nc3)cn2c1N(C)c1nc(-c2ccc(F)cc2)c(C#N)s1 [Compound 44]

>  <pIC50>
≥ 7.70

$$$$
>  <molecule>
CCc1nc2ccc(-c3cnc(N4CC(C(=O)N5CCC5)C4)nc3)cn2c1N(C)c1nc(-c2ccc(F)cc2)c(C#N)s1 [Compound 125]

>  <pIC50>
6.70 to 7.70

$$$$
>  <molecule>
CCc1nc2ccc(-c3ccc(N4CCN(C(=O)C5CCCC5)CC4)nc3)cn2c1N(C)c1nc(-c2ccc(F)cc2)c(C#N)s1 [Compound 112]

>  <pIC50>
6.70 to 7.70

$$$$

* * *

Experiment: Mouse PK study (IV and PO)
Format: in vivo
Conditions: male, C57BL/6, mouse, plasma, po, 10 mg/kg, male C57BL/6 mice, IV 2 mg/kg and PO 10 mg/kg; read-out: F % (bioavailability)
Collected bioavailability values appear next to each entry.
endpoint_label: bioavailability (%)

>  <query_smiles>
CCc1nc2ccc(-c3ccc(N4CCC(C(=O)N5CCCC5)CC4)nc3)cn2c1N(C)c1nc(-c2ccc(F)cc2)c(C#N)s1

>  <unit>
%

>  <quantitative_result>
44.7

$$$$
>  <query_smiles>
CCc1nc2ccc(-c3cnc(N4CCN(C(=O)C5(C#N)CC5)CC4)nc3)cn2c1N(C)c1nc(-c2ccc(F)cc2)c(C#N)s1

>  <unit>
%

>  <quantitative_result>
56.5

$$$$
>  <query_smiles>
CCc1nc2ccc(-c3cnc(N4CCN(C(=O)N5CC[C@H](O)C5)CC4)nc3)cn2c1N(C)c1nc(-c2ccc(F)cc2)c(C#N)s1

>  <unit>
%

>  <quantitative_result>
33.4

$$$$
